Would you please tag the item yes (1) when its glass transition temperature is 100 °C or above, and no (0) when it is below?

Is glass transition temperature for *c1cc(Br)c(-c2c(Br)cc(N3C(=O)c4ccc(-c5ccc6c(c5)C(=O)N(*)C6=O)cc4C3=O)cc2C(=O)OCCCCCCCC)c(C(=O)OCCCCCCCC)c1 (repeat unit) at or above 100 °C?
yes (1)

Is it the case that */C=C/c1cc(OCCCC)c(*)cc1OC (repeat unit) has glass transition temperature reaching or exceeding 100 °C?
no (0)

Say whether *NNC(=O)/C=C/C(=O)Nc1cccc(/C=C2\CCC/C(=C\c3cccc(NC(=O)/C=C/C(*)=O)c3)C2=O)c1 (repeat unit) shows glass transition temperature of 100 °C or more.
yes (1)

Has *CC(*)CC (repeat unit) a recorded glass transition temperature greater than or equal to 100 °C?
no (0)

Entry *c1ccc(Oc2ccc(C(c3ccc(Oc4ccc(-c5nnc(*)n5-c5ccccc5)cc4)cc3)(C(F)(F)F)C(F)(F)F)cc2)cc1 (repeat unit) : is its glass transition temperature no less than 100 °C?
yes (1)

Check this compound for glass transition temperature at or above 100 °C: *Oc1ccc(C(c2ccccc2)c2ccc(OC(*)=O)cc2)cc1 (repeat unit)
yes (1)

Textbook exercise: given the entry *Oc1ccc(-c2ccc(OC(=O)OC3C(C)(C)C(OC(*)=O)C3(C)C)cc2)cc1 (repeat unit) , state whether its glass transition temperature is greater than or equal to 100 °C.
yes (1)

Hi, just wondering whether *CCCCNC(=O)CC(=O)N* (repeat unit) shows glass transition temperature of 100 °C or higher.
no (0)
